test system: HOP-62 NSCLC; experiment: NCI tumour cell line growth inhibition, 48 h; in the data active means GI50 below about 0.43 µM; inactive means the rest
Thanks in advance; please answer with one of these: T (active), F (inactive)

{"SMILES_STR": "CCc1nc2cc(F)c(/C=C/C(=O)NO)cc2c(=O)n1CCc1ccccc1", "TESTED_TARGET": "HOP-62 NSCLC", "CLASS": "T"}

# input Hello, I am checking results. What call was entered for COC(=O)Nc1nc2ccc(C3(c4ccc(F)cc4)OCCO3)cc2[nH]1 ?
# output F

# input Record request — test call for O=C1/C(=C(/c2ccccc2)N2CCOCC2)Cc2ccccc21
# output F

====

tested on: SNB-78 CNS; assay: NCI tumour cell line growth inhibition, 48 h
Collected TGI values appear next to each entry.

{"COMPOUND": "CCOC(=O)CCC(=O)C1c2cccc(O)c2C(=O)c2c(O)cc(C)cc21 (stereo not drawn)", "TESTED_TARGET": "SNB-78 CNS", "RESULT": "1.9 µM"}
{"COMPOUND": "CCCCCCCCCCCCCCCC(=O)OCC(C[As](=O)(O)O)OC(=O)CCCCCCCCCCCCCCC (stereo not drawn)", "TESTED_TARGET": "SNB-78 CNS", "RESULT": "80.8 µM"}
{"COMPOUND": "CCCC1=C(CC)C(C(=O)Nc2c(C)cccc2C)=NC(S)N1 (stereo not drawn)", "TESTED_TARGET": "SNB-78 CNS", "RESULT": "> 100 µM"}
{"COMPOUND": "c1ccc(C2N3CCCCC3[C@@H]3c4[nH]c5ccccc5c4CCN23)nc1 (stereo partly drawn)", "TESTED_TARGET": "SNB-78 CNS", "RESULT": "> 100 µM"}
{"COMPOUND": "CCCCNC1CCCCC[C@H]1O (stereo partly drawn)", "TESTED_TARGET": "SNB-78 CNS", "RESULT": "> 100 µM"}

Lab note: measured TGI of CCOC(=O)N[C@@H]1C(CC(=O)OC)O[C@H]2OC(C)(C)O[C@H]21 (stereo partly drawn) was > 100 µM

Consider CN=C(SC)N(C)c1nc(=[N+](C)C)ss1 . Its measured TGI is > 100 µM

CC1=[N+]([O-])c2ccccc2C(=O)C1=O yielded TGI of > 100 µM

Given item c1cnn(CN(Cn2cccn2)Cn2cccn2)c1 , the value recorded as its TGI is > 100 µM

Value of TGI reported for the compound C=C(C)CCN[Si](c1ccccc1)(c1ccccc1)C(C)(C)C is 79 µM

Input C=C(C)[C@H]1Cc2c(ccc3c2O[C@@H]2COc4cc(OC)c(OC)cc4[C@@H]2C3=O)O1 . Output TGI: 45.3 µM

Quick note, TGI for Cc1cc(NS(=O)(=O)c2ccc(Nc3c4ccccc4nc4c(C(=O)N5CCN(CCO)CC5)cccc34)cc2)no1 landed at > 100 µM

Measured TGI of O=C(Nc1ccccc1-c1nc2ccccc2[nH]c1=O)c1ccccc1 : 69.2 µM

====

system: ACHN renal; test: NCI tumour cell line growth inhibition, 48 h
QUANTITY_MEASURED: TGI (µM)
State the answer as a number, implicitly in µM.

{"MOLECULE": "CCOC(=O)C1CCN(S(=O)(=O)/N=C2/NC(=O)NC2=C(Cl)Cl)CC1", "TGI, µM": 3.32}

Form field TGI, entry COC(=O)c1cc2c(cc1Cl)Sc1nnc(Nc3ccc(C)cc3)n1S2(=O)=O : 8.8

# TGI of COC(=O)Nc1nc2ccc(S(=O)(=O)SC)cc2[nH]1 = 23.9

The molecule identified as CC(CC[C@@]1(C)C(=O)CCC2O[C@]21C)[C@H]1C[C@@H](c2ccoc2)OC1=O (stereo partly specified) registered its TGI at 48

TGI measured on CN(C)CCNc1ccc(CO)c2oc3ccc(O)cc3c(=O)c12 = 44

Entry CCOC(=O)c1c(N2CCOCC2)[nH]c(=O)c(C(c2c(Cl)cccc2Cl)c2c(O)c(C(=O)OCC)c(N3CCOCC3)[nH]c2=O)c1O ; TGI = 13

Input Oc1c(N2CCOCC2)cc(-c2cc(N3CCOCC3)c(O)c3ccccc23)c2ccccc12 . Output TGI: 11

Lookup result for CN(C)CCC1(C2=CCCC2)CC/C(=C\c2ccc(Cl)cc2)C1=O (stereo unspecified) ; measured TGI: 23.8

For COC1=C(OC)C(=O)C(Cc2c(C)nc3sccn23)=C(C)C1=O the molecule record lists TGI as 30.1

According to the records, this molecule CCc1nc2cc(F)c(/C=C/C(=O)NO)cc2c(=O)n1CCc1ccccc1 displays TGI of 2.56

TGI for CN(C(=O)Cc1cccc(N=C=S)c1)[C@H]1CCCC[C@@H]1N1CCCC1 is 27.2

// TGI lookup, molecule = C=C(C)[C@H]1Cc2c(ccc3c2O[C@@H]2COc4cc(OC)c(OC)cc4[C@@H]2C3=O)O1 , result: 87

Consider COc1ccc(C2=C(Cl)c3cc(OC)c(OC)cc3C2Cl)cc1 (stereo unspecified) . Its measured TGI is 30.6

====

test system: PC-3 prostate; experiment: NCI tumour cell line growth inhibition, 48 h
# TGI per entry
The reply should contain only the number, in µM.

Worked cases, TGI given:
{"MOLECULE": "C=C(C)[C@H]1Cc2c(ccc3c2O[C@@H]2COc4cc(OC)c(OC)cc4[C@@H]2C3=O)O1", "TGI / µM": 47.5}
{"MOLECULE": "CCCCCCCCCCCC(=O)OCC(C[As](=O)(O)O)OC(=O)CCCCCCCCCCC (stereo not given)", "TGI / µM": 9.52}
{"MOLECULE": "CCc1nc2cc(F)c(/C=C/C(=O)NO)cc2c(=O)n1CCc1ccccc1", "TGI / µM": 59.4}
{"MOLECULE": "CC12OC(C(=O)C13CC3)C1C(=O)c3ccc4c(ccc5ccccc54)c3C(=O)C12 (stereo not given)", "TGI / µM": 80.7}

Now let's try a different one.
Per the records, this molecule ( COC(=O)c1cc2c(cc1Cl)Sc1nnc(Nc3ccc(C)cc3)n1S2(=O)=O ) has TGI equal to 18

====

system: OVCAR-5 ovarian; test: NCI tumour cell line growth inhibition, 48 h
compounds and their reported TGI

Below: 5 compounds and their reported TGI.
{"COMPOUND": "CCOC(=O)c1ccc(NCc2ccc3oc(=O)c(-c4ccccc4)nc3c2)cc1", "TGI": "> 100 µM"}
{"COMPOUND": "COc1cc(Br)cc2cc(-c3cn4c(n3)sc3ccccc34)c(=O)oc12", "TGI": "> 75 µM"}
{"COMPOUND": "Cc1cc(N(CCC#N)CCC#N)ccc1/C=C(\\NC(=O)/C=C/c1ccccc1)C(N)=O", "TGI": "> 100 µM"}
{"COMPOUND": "COc1cc2ncnc(-n3ncc4cc(NC(=O)Nc5ccccc5)ccc43)c2cc1OC", "TGI": "13.8 µM"}
{"COMPOUND": "CC(C)c1c(O)c(O)c2c(c1O)C(=O)C(O)=C1C(C)(C)CCC[C@@]12C", "TGI": "19.5 µM"}

Query N#Cc1c(-c2ccccc2)[nH]c2ccc(Cl)cc2c1=O yields TGI of > 100 µM

For COc1ccc(-c2nc3ccccn3c2/C=C/C(=O)c2cc(OC)c(OC)c(OC)c2)cc1OC the compound record lists TGI as 53.3 µM

Lab note: O=C(Nc1n[nH]c2cc(-c3ccccc3)ccc12)C1CC1 gave TGI of > 25 µM

Query CC1=[N+]([O-])c2ccccc2C(=O)C1=O yields TGI of > 100 µM

TGI reported for this compound C[Si](C)(C)OC1CC(=O)OC1n1cc(F)c(=O)[nH]c1=O (stereo not given) : > 100 µM

====

system: CCRF-CEM leukemia; assay: NCI tumour cell line growth inhibition, 48 h
QUANTITY_MEASURED: TGI

Please review the entries below; each comes with its answer.
{"COMPOUND": "Cn1cc(C2(C)CC(C)(C)c3c2n(C)c2ccccc32)c2ccccc21 (centres undefined)", "TGI": "> 100 µM"}
{"COMPOUND": "CC(C)c1ccc(-c2cc(-c3cn[nH]c3-c3ccccn3)ccn2)cc1", "TGI": "> 25 µM"}
{"COMPOUND": "CC1(C)C(=O)/C(=C\\c2cccnc2)C[C@]2(C)[C@H]3CC[C@@H]4[C@H]5[C@H](C(=O)/C=C/c6cccnc6)CC[C@]5(C(=O)O)CC[C@@]4(C)[C@]3(C)CC[C@@H]12", "TGI": "8.07 µM"}
{"COMPOUND": "CC(=O)O[C@H]1C(=O)[C@@]2(C)[C@H]([C@H](OC(=O)c3ccoc3)[C@]3(O)C[C@H](OC(=O)[C@H](O)[C@@H](NC(=O)c4ccccc4)c4ccccc4)C(C)=C1C3(C)C)[C@]1(OC(C)=O)CO[C@@H]1C[C@@H]2O", "TGI": "> 2.88 µM"}
{"COMPOUND": "O=C(c1cccc2ccccc12)N1CCC(C2CCN(C(=O)c3cccc4ccccc34)CC2)CC1", "TGI": "> 100 µM"}
{"COMPOUND": "CO/C=C(/C(=O)OC)c1ccccc1COc1cccc(C(F)(F)F)c1", "TGI": "27.3 µM"}

TGI reading for COc1c2c(cc3c1OCO3)[C@]13C=C[C@H](OC)C[C@H]1N(C2)CC3O (some centres undefined) : > 100 µM

For this compound ( O=C1/C(=C(/c2ccccc2)N2CCOCC2)Cc2ccccc21 ), measured TGI is 2.67 µM

# TGI (compound: N#Cc1c(-c2ccccc2)[nH]c2ccc(Cl)cc2c1=O ) is > 100 µM
